STUDY TARGET: glucocerebrosidase (GCase) (Homo sapiens, UniProt P04062)
Sequence (P04062 40-536): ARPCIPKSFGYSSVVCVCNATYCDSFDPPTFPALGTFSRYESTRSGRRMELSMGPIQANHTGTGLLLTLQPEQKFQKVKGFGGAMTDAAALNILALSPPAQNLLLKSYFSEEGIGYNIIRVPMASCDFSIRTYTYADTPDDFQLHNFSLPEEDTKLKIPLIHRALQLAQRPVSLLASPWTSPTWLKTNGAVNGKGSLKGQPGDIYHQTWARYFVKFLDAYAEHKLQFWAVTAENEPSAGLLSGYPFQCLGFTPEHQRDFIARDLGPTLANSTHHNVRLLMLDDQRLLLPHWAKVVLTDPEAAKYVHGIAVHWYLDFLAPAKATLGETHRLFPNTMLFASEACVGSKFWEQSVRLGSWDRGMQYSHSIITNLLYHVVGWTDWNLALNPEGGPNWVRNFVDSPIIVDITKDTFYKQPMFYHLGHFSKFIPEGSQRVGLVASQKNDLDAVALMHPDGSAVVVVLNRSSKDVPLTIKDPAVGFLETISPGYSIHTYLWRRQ
METHOD: Glucocerebrosidase activation (Table 1, Exemplary Compounds and Activities)
Type: biochemical
CONDITIONS: activation of glucocerebrosidase; read-out: Maximum Activation (Emax)
So I've got a bunch of molecules here, and I need their Emax values.
Answer format: numeric, % implied, no suffix.

input: Give the observed Emax of Cc1cc(C)n2ccc(C(=O)Nc3cccc(CC(C)C)c3)c2n1 for glucocerebrosidase (GCase) (Homo sapiens, UniProt P04062).
output: 300

input: Please look at Cc1cc(C)n2ccc(C(=O)Nc3cccc(Oc4ccccc4)c3)c2n1 and tell me its recorded Emax on glucocerebrosidase (GCase) (Homo sapiens, UniProt P04062).
output: 280

input: Write down measured Emax (glucocerebrosidase (GCase) (Homo sapiens, UniProt P04062)) for this molecule. COC(=O)CCc1cccc(NC(=O)c2ccn3c(C)cc(C)nc23)c1
output: 578

input: Please look at Cc1cc(C)n2ccc(C(=O)Nc3ccc(C(=O)ON4C(=O)CCC4=O)cc3)c2n1 and tell me its recorded Emax on glucocerebrosidase (GCase) (Homo sapiens, UniProt P04062).
output: 115

input: Report Emax under test system glucocerebrosidase (GCase) (Homo sapiens, UniProt P04062) for Cc1cc(C)n2ccc(C(=O)Nc3nc4c(s3)CC(C)(C)CC4)c2n1 .
output: 230

input: Write down the reported Emax (system: glucocerebrosidase (GCase) (Homo sapiens, UniProt P04062)) of Cc1cc(C)n2ccc(C(=O)Nc3ccc(CCC(=O)ON4C(=O)CCC4=O)cc3)c2n1
output: 620

input: Report Emax from glucocerebrosidase (GCase) (Homo sapiens, UniProt P04062) testing of Cc1cc(C)n2ccc(C(=O)Nc3ccc4c(c3)CCCC4=O)c2n1
output: 355

input: Give glucocerebrosidase (GCase) (Homo sapiens, UniProt P04062) Emax for the following molecule: Cc1cc(C)n2ccc(C(=O)Nc3cccc(CC(=O)ON4C(=O)CCC4=O)c3)c2n1
output: 500

input: Enter measured Emax, system glucocerebrosidase (GCase) (Homo sapiens, UniProt P04062), for the molecule shown: Cc1cc(C)n2ccc(C(=O)Nc3ccc(CC(=O)ON4C(=O)CCC4=O)cc3)c2n1
output: 374

input: State the measured Emax (glucocerebrosidase (GCase) (Homo sapiens, UniProt P04062)) of Cc1cc(C)n2ccc(C(=O)Nc3ccc4c(c3)CCCC4)c2n1
output: 527

input: Please respond with reported Emax (system glucocerebrosidase (GCase) (Homo sapiens, UniProt P04062)) for CCOC(=O)Cc1ccc(NC(=O)c2ccn3c(C)cc(C)nc23)cc1 .
output: 550

input: Identify measured Emax obtained with glucocerebrosidase (GCase) (Homo sapiens, UniProt P04062) for Cc1cc(C)n2ccc(C(=O)Nc3ccc4c(c3)COC4)c2n1 .
output: 456

input: Give reported Emax for Cc1cc(C)n2ccc(C(=O)Nc3ccc4c(c3)C(=O)CCC4)c2n1 (glucocerebrosidase (GCase) (Homo sapiens, UniProt P04062))
output: 750

input: Quote glucocerebrosidase (GCase) (Homo sapiens, UniProt P04062) Emax for entry Cc1cc(C)n2ccc(C(=O)Nc3cccc(NC(=O)CCl)c3)c2n1 .
output: 480

input: For glucocerebrosidase (GCase) (Homo sapiens, UniProt P04062), give the measured Emax of the entry Cc1cc(C)n2ccc(C(=O)Nc3cccc(N)c3)c2n1
output: 210

input: Report Emax on glucocerebrosidase (GCase) (Homo sapiens, UniProt P04062) for this entry: Cc1cc(C)n2ccc(C(=O)Nc3cccc(CC(=O)Oc4ccccc4)c3)c2n1
output: 230

input: Report measured Emax on glucocerebrosidase (GCase) (Homo sapiens, UniProt P04062); entry: Cc1cc(C)n2ccc(C(=O)Nc3c(C)nn(Cc4ccccc4)c3C)c2n1
output: 914

input: Give Emax only, for COC(=O)Cc1cccc(NC(=O)c2ccn3c(C)cc(C)nc23)c1 , using glucocerebrosidase (GCase) (Homo sapiens, UniProt P04062) data.
output: 450

input: Find the measured Emax of Cc1cc(C)n2ccc(C(=O)Nc3ccc4c(c3)C(=O)CC4)c2n1 with glucocerebrosidase (GCase) (Homo sapiens, UniProt P04062) as test system.
output: 225

input: Tell me its Emax on glucocerebrosidase (GCase) (Homo sapiens, UniProt P04062): CCOC(=O)c1ccc(NC(=O)c2ccn3c(C)cc(C)nc23)cc1
output: 250

input: Identify measured Emax obtained with glucocerebrosidase (GCase) (Homo sapiens, UniProt P04062) for Cc1cc(C)n2ccc(C(=O)Nc3cccc(C(=O)O)c3)c2n1 .
output: 175

input: Name the value of Emax reported for Cc1cc(C)n2ccc(C(=O)Nc3cccc(CC(=O)O)c3)c2n1 when tested on glucocerebrosidase (GCase) (Homo sapiens, UniProt P04062).
output: 550

input: State measured Emax of the molecule Cc1cc(C)n2ccc(C(=O)Nc3cccc(-c4ccccc4)c3)c2n1 with glucocerebrosidase (GCase) (Homo sapiens, UniProt P04062).
output: 296

input: For glucocerebrosidase (GCase) (Homo sapiens, UniProt P04062), give Emax of the listed molecule: Cc1cc(C)n2ccc(C(=O)Nc3cccc(C(C)C)c3)c2n1
output: 280

input: For glucocerebrosidase (GCase) (Homo sapiens, UniProt P04062), give the measured Emax of the entry COC(=O)CCc1ccc(NC(=O)c2ccn3c(C)cc(C)nc23)cc1
output: 180

input: Under glucocerebrosidase (GCase) (Homo sapiens, UniProt P04062), report Emax for Cc1cc(C)n2ccc(C(=O)Nc3cccc4c3CCC4)c2n1
output: 202
